target: SfurOBP2 (Sogatella furcifera, UniProt V5T759); experiment: biochemical; format: binding; conditions: ligand concentration 4 (unit not given), replicate column 2 of 3
Sequence (V5T759 entry or part of it): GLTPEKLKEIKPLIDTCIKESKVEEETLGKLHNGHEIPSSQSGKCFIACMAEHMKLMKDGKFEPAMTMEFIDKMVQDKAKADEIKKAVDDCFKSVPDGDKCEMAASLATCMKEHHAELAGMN
Assign condition met whenever Fluorescence competitive binding assay, OBP2 (raw fluorescence reading) does not fall below 20000; assign condition not met whenever it does.

CC(=O)/C=C/C1=C(C)CCCC1(C)C	condition not met

Exam item: decide whether the reported Fluorescence competitive binding assay, OBP2 (raw fluorescence reading) for `CCCCCCCCC=O` is at least 20000.
condition met

Exam item: decide whether the reported Fluorescence competitive binding assay, OBP2 (raw fluorescence reading) for `O=Cc1ccccc1` is at least 20000.
condition not met

Exam item: decide whether the reported Fluorescence competitive binding assay, OBP2 (raw fluorescence reading) for C=C(C)C1CC=C(C)CC1 (single isomer, unassigned; (+)) [(+)-limonene] is at least 20000.
condition not met

Exam item: decide whether the reported Fluorescence competitive binding assay, OBP2 (raw fluorescence reading) for `C/C(=C\CO)CCC[C@H](C)CCC[C@H](C)CCCC(C)C` is at least 20000.
condition not met

Exam item: decide whether the reported Fluorescence competitive binding assay, OBP2 (raw fluorescence reading) for `CCCCCCCC` is at least 20000.
condition not met

Exam item: decide whether the reported Fluorescence competitive binding assay, OBP2 (raw fluorescence reading) for `CCCCCC=O` is at least 20000.
condition not met

Exam item: decide whether the reported Fluorescence competitive binding assay, OBP2 (raw fluorescence reading) for `CCCCCCCCCCOCCCCCCCCCC` is at least 20000.
condition met

Exam item: decide whether the reported Fluorescence competitive binding assay, OBP2 (raw fluorescence reading) for `CCCCCCC=CCO` is at least 20000.
condition met

Exam item: decide whether the reported Fluorescence competitive binding assay, OBP2 (raw fluorescence reading) for `CCCCCCCCCCCCCCCC` is at least 20000.
condition not met

Exam item: decide whether the reported Fluorescence competitive binding assay, OBP2 (raw fluorescence reading) for `COC(=O)c1ccccc1` is at least 20000.
condition met

* * *

target: SfurOBP11 (Sogatella furcifera, UniProt V5T6E3); experiment: biochemical; type: binding; conditions: ligand concentration 10, replicate 3
Sequence (V5T6E3 entry or part of it): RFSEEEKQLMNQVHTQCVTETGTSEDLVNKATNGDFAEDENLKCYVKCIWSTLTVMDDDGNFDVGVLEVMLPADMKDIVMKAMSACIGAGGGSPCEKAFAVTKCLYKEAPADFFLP
Assign true (1) whenever Fluorescence intensity, fluorescence competitive binding assay, OBP11 does not fall below 30000; assign false (0) whenever it does.

CCCCCCCCCCCCCCCCCCC	true (1)
CCC/C=C/CO [(E)-2-hexenol]	false (0)
COC(=O)c1ccccc1	false (0)
C=C(C)C1CC=C(C)CC1 (single isomer, unassigned; (+)) [(+)-limonene]	false (0)
CC1=CC[C@@H](C(C)(C)O)CC1	false (0)

Exam item: decide whether the reported Fluorescence intensity, fluorescence competitive binding assay, OBP11 for `CCCCCCCCC=O` is at least 30000.
false (0)

Exam item: decide whether the reported Fluorescence intensity, fluorescence competitive binding assay, OBP11 for C=CC(C)(O)CCC=C(C)C (centres unmarked) is at least 30000.
true (1)

Exam item: decide whether the reported Fluorescence intensity, fluorescence competitive binding assay, OBP11 for `C=C1CC/C=C(\C)CC[C@@H]2[C@@H]1CC2(C)C` is at least 30000.
false (0)

Exam item: decide whether the reported Fluorescence intensity, fluorescence competitive binding assay, OBP11 for `CCCCCCCC=O` is at least 30000.
false (0)

* * *

target: SfurOBP11 (Sogatella furcifera); assay: biochemical; type: binding; settings: ligand concentration 8, replicate 3
Assign true (1) whenever Fluorescence intensity, fluorescence competitive binding assay, OBP11 does not fall below 30000; assign false (0) whenever it does.

Reference set, count: 3
CCCCCC(C)=O [2-heptanone]	false (0)
Cc1ccc(C(C)C)cc1 [4-isopropyltoluene]	false (0)
CCC/C=C/CO [(E)-2-hexenol]	false (0)

Exam item: decide whether the reported Fluorescence intensity, fluorescence competitive binding assay, OBP11 for C=C(C)C1CC=C(C)CC1 (single isomer, unassigned; (+)) [(+)-limonene] is at least 30000.
false (0)

Exam item: decide whether the reported Fluorescence intensity, fluorescence competitive binding assay, OBP11 for CCCCCCCCCCCCCCCCCCC [n-nonadecane] is at least 30000.
true (1)

Exam item: decide whether the reported Fluorescence intensity, fluorescence competitive binding assay, OBP11 for CCCCCCC=CCO [2-nonen-1-ol] is at least 30000.
true (1)

Exam item: decide whether the reported Fluorescence intensity, fluorescence competitive binding assay, OBP11 for CC(=O)/C=C/C1=C(C)CCCC1(C)C [β-Ionone] is at least 30000.
false (0)

Exam item: decide whether the reported Fluorescence intensity, fluorescence competitive binding assay, OBP11 for CC(C)COC(=O)CCCCC(=O)OCC(C)C [DA(diisobutyl adipate)] is at least 30000.
false (0)

Exam item: decide whether the reported Fluorescence intensity, fluorescence competitive binding assay, OBP11 for CC1=CC[C@@H](C(C)(C)O)CC1 [α-terpineol] is at least 30000.
false (0)

Exam item: decide whether the reported Fluorescence intensity, fluorescence competitive binding assay, OBP11 for Cc1cc(C(C)(C)C)c(O)c(C(C)(C)C)c1 [BHT(2,6-di-tert-butyl-4-methylphenol)] is at least 30000.
false (0)

Exam item: decide whether the reported Fluorescence intensity, fluorescence competitive binding assay, OBP11 for O=Cc1ccccc1 [benzaldehyde] is at least 30000.
false (0)

Exam item: decide whether the reported Fluorescence intensity, fluorescence competitive binding assay, OBP11 for C/C(=C\CO)CCC[C@H](C)CCC[C@H](C)CCCC(C)C [plant alcohol] is at least 30000.
false (0)

Exam item: decide whether the reported Fluorescence intensity, fluorescence competitive binding assay, OBP11 for C=CC(C)(O)CCC=C(C)CCC=C(C)C (mixture of isomers) [nerolidol] is at least 30000.
false (0)

Exam item: decide whether the reported Fluorescence intensity, fluorescence competitive binding assay, OBP11 for CCCCCCCCCCCCC=O [tridecanal] is at least 30000.
false (0)

* * *

biological target: SfurOBP2 (Sogatella furcifera); assay: biochemical; format: binding; settings: ligand concentration 18 (unit not given), replicate column 1 of 3
The label Fulfilled is reserved for Fluorescence competitive binding assay, OBP2 (raw fluorescence reading) strictly under 20000; Not fulfilled covers values equal to or above it.

CCCCCCCCCCCCCCCC(=O)OC [MH(methyl hexadecanoate)]	Not fulfilled
CCCCCCCCCCCCCCCCCCC [n-nonadecane]	Not fulfilled
CCCCCCCC [n-octane]	Fulfilled

# strict comparison: is reported Fluorescence competitive binding assay, OBP2 (raw fluorescence reading) < 20000? input = CC(=O)c1ccccc1 [acetophenone]
Fulfilled

# strict comparison: is reported Fluorescence competitive binding assay, OBP2 (raw fluorescence reading) < 20000? input = CC(=O)/C=C/C1=C(C)CCCC1(C)C [β-Ionone]
Fulfilled

# strict comparison: is reported Fluorescence competitive binding assay, OBP2 (raw fluorescence reading) < 20000? input = Cc1ccc(C(C)C)cc1 [4-isopropyltoluene]
Fulfilled

# strict comparison: is reported Fluorescence competitive binding assay, OBP2 (raw fluorescence reading) < 20000? input = CCCCCCCCCCCCC=O [tridecanal]
Fulfilled

# strict comparison: is reported Fluorescence competitive binding assay, OBP2 (raw fluorescence reading) < 20000? input = C[C@@H]1CC[C@H]2C(C)(C)[C@H]3C[C@@]12CC[C@@]3(C)O [cedrol]
Not fulfilled

# strict comparison: is reported Fluorescence competitive binding assay, OBP2 (raw fluorescence reading) < 20000? input = CC/C=C\CCO [(Z)-3-hexenol]
Fulfilled

# strict comparison: is reported Fluorescence competitive binding assay, OBP2 (raw fluorescence reading) < 20000? input = CC1=CC[C@@H](C(C)(C)O)CC1 [α-terpineol]
Fulfilled

# strict comparison: is reported Fluorescence competitive binding assay, OBP2 (raw fluorescence reading) < 20000? input = OC1CCCCC1 [cyclohexanol]
Fulfilled

# strict comparison: is reported Fluorescence competitive binding assay, OBP2 (raw fluorescence reading) < 20000? input = CCC/C=C/CO [(E)-2-hexenol]
Fulfilled

* * *

Fluorescence competitive binding assay, OBP2 (raw fluorescence reading) values, listed per item
target: SfurOBP2 (Sogatella furcifera); test: biochemical; assay type: binding; settings: ligand concentration 10 (unit not given), replicate column 2 of 3
Give your answer as a number; write no unit.

The value of Fluorescence competitive binding assay, OBP2 (raw fluorescence reading) measured for the compound O=Cc1ccccc1 [benzaldehyde] turned out to be 13459

The value of Fluorescence competitive binding assay, OBP2 (raw fluorescence reading) measured for the compound CC/C=C\CCO [(Z)-3-hexenol] turned out to be 17439

* * *

target: UniProt V5T6E3; test: biochemical; format: binding; details: ligand concentration 18, replicate 1
Assign met whenever Fluorescence intensity, fluorescence competitive binding assay, OBP11 does not fall below 30000; assign not met whenever it does.

Exam item: decide whether the reported Fluorescence intensity, fluorescence competitive binding assay, OBP11 for `CCCCCCCCCCCCCCCCCCC` is at least 30000.
met

Exam item: decide whether the reported Fluorescence intensity, fluorescence competitive binding assay, OBP11 for `CCCCCCCCCCCCO` is at least 30000.
not met

Exam item: decide whether the reported Fluorescence intensity, fluorescence competitive binding assay, OBP11 for C=CC(C)(O)CCC=C(C)CCC=C(C)C (mixture of isomers) is at least 30000.
not met

Exam item: decide whether the reported Fluorescence intensity, fluorescence competitive binding assay, OBP11 for `CCCCCCCCCCOCCCCCCCCCC` is at least 30000.
met

Exam item: decide whether the reported Fluorescence intensity, fluorescence competitive binding assay, OBP11 for C=C(C)C1CC=C(C)CC1 (single isomer, unassigned; (+)) [(+)-limonene] is at least 30000.
not met
